Source: the kinase profiling compilation of Christmann-Franck et al. (2016)

target: MAPKAPK5 (human); experiment: radiometric filter-binding kinase assay; conditions: compound 1.0 µM; ATP 20 µM
assay_metric: residual activity (%)
Please give a number only; it is taken to be in %.

Enquiry: What does the record list as residual activity for COC[C@H]1OC(=O)c2coc3c2[C@@]1(C)C1=C(C3=O)[C@@H]2CCC(=O)[C@@]2(C)C[C@H]1OC(C)=O ?
Return: 69

Enquiry: What does the record list as residual activity for COc1ccc2c(c1)=NC1=C(C)NCCC=21 ?
Return: 74

Enquiry: What does the record list as residual activity for O=C1c2ccccc2-c2n[nH]c3cccc1c23 ?
Return: 58

Enquiry: What does the record list as residual activity for CO[C@H]1CC2CC[C@@H](C)[C@@](O)(O2)C(=O)C(=O)N2CCCC[C@H]2C(=O)OC([C@H](C)C[C@@H]2CC[C@@H](O)[C@H](OC)C2)CC(=O)[C@H](C)/C=C(\C)[C@@H](O)[C@@H](OC)C(=O)[C@H](C)C[C@H](C)/C=C/C=C/C=C/1C (stereo partly specified) ?
Return: 91

Enquiry: What does the record list as residual activity for O=S(=O)(NCCNC/C=C/c1ccc(Br)cc1)c1cccc2cnccc12 ?
Return: 89

Enquiry: What does the record list as residual activity for CC(C)(N)c1ccc(-c2nc3ccccc3nc2-c2ccccc2)cc1 ?
Return: 85
